The binders listed here are annotated with their Kd.
- studySystem: T1, human TREM2-Fc (human, UniProt Q9NZC2 19-174)
- T1 construct: also called hTREM2; not shown: Fc part (captured by anti-human IgG1 Fc or protein A)
- T1 sequence: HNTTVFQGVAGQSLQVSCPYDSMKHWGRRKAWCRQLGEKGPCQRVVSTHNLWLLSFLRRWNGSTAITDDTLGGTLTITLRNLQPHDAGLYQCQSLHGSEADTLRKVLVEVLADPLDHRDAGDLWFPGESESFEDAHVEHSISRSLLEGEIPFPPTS
- test: SPR (Biacore T200), 37 C; TREM2-Fc on protein A chip, soluble Fab
Give just the numeric value; nM need not be written.

Could you share which Kd value was measured for h3.10C2.v1 Fab (Fab, V domains shown, also called 3.10C2-H1/3.27H7-L6) VH: EVQLVESGGGLVQPGGSLKLSCATSGFPFSNVWMHWVRQASGKGLEWIAHIKAKSDNYATYYAESVKGRFTISRDDSKTTIYLQMNSLKTEDTAVYYCTGLDYWGQGTTVTVSS VL: DVVMTQSPLSLPVTPGEPASISCRSSRSLLTSKGITSLYWYLQKPGQSPQLLIYRMSNLASGVPDRFSGSGSGTDFTLKISRVEAEDVGVYYCAQFLVYPYTFGQGTKVEIK ?
0.39

Requested read-out: Kd. Entry: hPara.09.v2 Fab (Fab, V domains shown, also called Para.09-H5/3.27H7-L6) VH: EVQLVESGGGLVQPGGSLKLSCATSGFPFSNVWLHWVRQASGKGPEWVAHIKAKSDNYATYYAESVKGRFTISRDDSKNTVYLQMNSLKTEDTAVYYCTDILEYWGQGTLVTVSS VL: DVVMTQSPLSLPVTPGEPASISCRSSRSLLTSKGITSLYWYLQKPGQSPQLLIYRMSNLASGIPDRFSGSGSGTDFTLKISRVEAEDVGVYYCAQFLVYPYTFGQGTKVEIK
0.021

Further cases:
Look up Kd for this binder: Para.09 Fab with the 3.27H7 light chain (Fab, V domains shown, Fab fragment; also called Para.09 (3.27H7); Para.09-L27H7) VH: EVQLVETGGSLVQPGKSLRLTCATSGFPFSNVWLHWVRQSPEKHPEWVAHIKAKSDNYATYYAESVKGRFTISRDDSKSSVFLQMNSLKEEDTAIYYCTDILEYWGQGTLVTVSS VL: DVVLTQAPLSVSVTPGESASISCRSSRSLLTSKGITSLYWYLQKPGMSPHLLIYRMSNLASGIPDRFSGSGSETDFTLKISEVEPEDVGVYYCAQFLVYPYTFGAGTKLELK
0.015
